# ASSAYED TARGET: T1, recombinant human ADAMTS5 (R&D Systems cat #2198-AD) (human, UniProt Q9UNA0 262-622, limits assumed)
# T1 construct: bought protein
# T1 sequence: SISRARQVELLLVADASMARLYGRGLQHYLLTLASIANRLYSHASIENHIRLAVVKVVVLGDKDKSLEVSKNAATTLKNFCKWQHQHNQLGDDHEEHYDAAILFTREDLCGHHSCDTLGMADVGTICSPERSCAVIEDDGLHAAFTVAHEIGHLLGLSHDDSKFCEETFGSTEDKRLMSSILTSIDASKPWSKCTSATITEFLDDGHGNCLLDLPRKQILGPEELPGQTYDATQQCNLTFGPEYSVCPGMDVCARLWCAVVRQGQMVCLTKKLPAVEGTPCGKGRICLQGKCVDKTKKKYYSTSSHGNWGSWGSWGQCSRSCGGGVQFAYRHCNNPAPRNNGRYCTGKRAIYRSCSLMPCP
# PROTOCOL SUMMARY: SPR off-rate, Biacore T100, ADAMTS5 immobilised, experiment 2
QUANTITY MEASURED: koff (s⁻¹)
Field: numeric (s⁻¹). Do not append units.

Use these answered entries as a reference point.
Nanobody 3D01 (VHH, tagged as tested (anti-Flag detection, IMAC); also called 03D01) VHH: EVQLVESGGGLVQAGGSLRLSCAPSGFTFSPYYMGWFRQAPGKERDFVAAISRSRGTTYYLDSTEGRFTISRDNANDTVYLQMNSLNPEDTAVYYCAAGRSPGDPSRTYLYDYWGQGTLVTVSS	0.00032
Nanobody 11B06 (VHH, tagged as tested (anti-Flag detection, IMAC)) VHH: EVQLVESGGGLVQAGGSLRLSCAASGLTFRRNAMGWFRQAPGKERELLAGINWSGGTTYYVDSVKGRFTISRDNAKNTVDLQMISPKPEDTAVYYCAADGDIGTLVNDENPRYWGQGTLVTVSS	0.00027

We next turn to a different binder, shown below.
IN: Please look up its koff: Nanobody 2D07 (VHH, tagged as tested (anti-Flag detection, IMAC); also called 02D07; 2D7) VHH: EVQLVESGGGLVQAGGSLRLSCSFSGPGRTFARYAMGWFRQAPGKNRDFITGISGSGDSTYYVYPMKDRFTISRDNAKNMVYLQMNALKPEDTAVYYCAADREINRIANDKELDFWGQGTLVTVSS
OUT: 0.00094
